Biological target: mannose receptor (MR) on CHO-MR cells (Mus musculus, UniProt Q61830)
Construct: expressed in transfected cells; host or cells: CHO (CHO-MR overexpression line, gift of Luisa Martinez-Pomares)
Sequence (Q61830 20-1456): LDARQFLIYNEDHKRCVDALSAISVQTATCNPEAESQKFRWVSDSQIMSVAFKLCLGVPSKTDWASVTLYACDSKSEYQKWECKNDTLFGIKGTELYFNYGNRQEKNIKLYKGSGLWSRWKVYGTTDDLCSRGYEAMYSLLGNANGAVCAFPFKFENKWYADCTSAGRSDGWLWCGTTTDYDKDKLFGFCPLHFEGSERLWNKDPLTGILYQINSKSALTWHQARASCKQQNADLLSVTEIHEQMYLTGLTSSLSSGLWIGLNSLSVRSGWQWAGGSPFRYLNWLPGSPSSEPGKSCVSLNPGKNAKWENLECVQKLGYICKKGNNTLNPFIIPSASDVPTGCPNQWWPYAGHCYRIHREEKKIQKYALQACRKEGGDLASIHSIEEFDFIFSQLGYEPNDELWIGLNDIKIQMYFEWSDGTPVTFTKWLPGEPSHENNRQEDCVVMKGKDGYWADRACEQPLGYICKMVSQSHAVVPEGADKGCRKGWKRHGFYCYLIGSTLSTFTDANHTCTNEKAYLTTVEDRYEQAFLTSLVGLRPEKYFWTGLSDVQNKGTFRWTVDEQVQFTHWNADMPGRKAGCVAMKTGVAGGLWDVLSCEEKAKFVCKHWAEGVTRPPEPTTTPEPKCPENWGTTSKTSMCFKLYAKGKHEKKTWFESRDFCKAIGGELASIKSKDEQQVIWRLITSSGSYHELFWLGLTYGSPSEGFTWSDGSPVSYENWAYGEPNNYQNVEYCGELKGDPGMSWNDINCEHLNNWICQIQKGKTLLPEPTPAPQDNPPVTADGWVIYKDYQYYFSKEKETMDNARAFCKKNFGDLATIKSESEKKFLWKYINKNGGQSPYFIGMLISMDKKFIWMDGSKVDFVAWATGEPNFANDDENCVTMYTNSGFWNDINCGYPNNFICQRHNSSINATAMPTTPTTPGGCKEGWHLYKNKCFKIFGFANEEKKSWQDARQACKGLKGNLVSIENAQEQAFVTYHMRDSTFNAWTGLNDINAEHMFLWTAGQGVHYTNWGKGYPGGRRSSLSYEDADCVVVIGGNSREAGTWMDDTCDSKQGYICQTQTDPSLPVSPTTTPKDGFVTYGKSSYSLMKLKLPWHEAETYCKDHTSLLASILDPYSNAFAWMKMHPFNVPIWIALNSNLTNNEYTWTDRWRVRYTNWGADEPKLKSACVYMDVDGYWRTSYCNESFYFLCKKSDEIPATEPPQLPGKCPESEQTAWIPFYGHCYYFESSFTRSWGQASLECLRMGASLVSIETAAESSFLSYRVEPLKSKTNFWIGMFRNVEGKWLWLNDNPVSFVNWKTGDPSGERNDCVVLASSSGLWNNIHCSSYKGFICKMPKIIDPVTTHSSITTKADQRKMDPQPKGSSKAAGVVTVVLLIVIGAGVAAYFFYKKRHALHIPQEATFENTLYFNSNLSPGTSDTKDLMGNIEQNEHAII
Experiment: Glyco-PAINT-APP single-molecule glycan binding on CHO-MR cells
Conditions: Suppl. Fig 9, glycan SLP, CHO-MR + CytD, median
sCy5 = sulfo-Cy5
measurement.kind: kon (evts μm−2 sec−1)
The reply should contain only the number, in evts μm−2 sec−1.

* Ac-Lys(Man)-TEG-Asp-Glu-Val-Ser-Gly-Leu-Glu-Gln-Leu-Glu-Ser-Ile-Ile-Asn-Phe-Glu-Lys-Leu-Ala-Ala-Ala-Ala-Ala-Lys(sCy5)-NH2 ({Ac-K(Man)-TEG}-DEVSGLEQLESIINFEKLAAAAAK(sCy5)-NH2) [1 Mono(1), monovalent monomannosylated OVA SLP with sulfo-Cy5] | 3.9

Form: item Ac-Lys(Man)-Gly-Lys(Man)-TEG-Asp-Glu-Val-Ser-Gly-Leu-Glu-Gln-Leu-Glu-Ser-Ile-Ile-Asn-Phe-Glu-Lys-Leu-Ala-Ala-Ala-Ala-Ala-Lys(sCy5)-NH2 ({Ac-K(Man)-Gly-K(Man)-TEG}-DEVSGLEQLESIINFEKLAAAAAK(sCy5)-NH2) [2 Mono(2), bivalent monomannosylated OVA SLP with sulfo-Cy5] ; test system mannose receptor (MR) on CHO-MR cells (Mus musculus, UniProt Q61830); kon: 8.2
